Entries annotated with measured Tm
# MEASUREMENT DESCRIPTION: Protein melting point by DSC
# Type: physicochemical
# MEASUREMENT PARAMETERS: protein melting point by DSC; in °C (unit assumed)
EXPERIMENTAL READOUT: Tm

• N31A T34A 6XH2: SP1 mutant N31A T34A 6XH2, SEQ ID NO:30 (protein, Sp1 mutant variant 6Xhis inserted into position 2, N31A and T34A mutated) MHHHHHHATRTPKLVKHTLLTRFKDEITREQIDNYIADYANLLDLIPSMKSFNWGTDLGMESAELNRGYTHAFESTFESKSGLQEYLDSAALAAFAEGFLPTLSQRLVIDYFLY = 96.6
• D38A: SP1 mutant D38A, SEQ ID NO:17 (protein, Sp1 mutant variant D38A mutated) MATRTPKLVKHTLLTRFKDEITREQIDNYINDYTNLLALIPSMKSFNWGTDLGMESAELNRGYTHAFESTFESKSGLQEYLDSAALAAFAEGFLPTLSQRLVIDYFLY = 113
• Y108A: SP1 mutant Y108A, SEQ ID NO:24 (protein, Sp1 mutant variant Y108A mutated) MATRTPKLVKHTLLTRFKDEITREQIDNYINDYTNLLDLIPSMKSFNWGTDLGMESAELNRGYTHAFESTFESKSGLQEYLDSAALAAFAEGFLPTLSQRLVIDYFLA = 68

FYI, the data here is from patent US20150273076A1.
